Entry source: patent US7135572B2

systemName: cyclooxygenase-1 (Homo sapiens, UniProt P23219)
Construct: The cultured U-937 (humane lymphoma cell, obtained from Korean cell line bank) was centrifuged to collect the pellet; endogenous in cells; host or cells: U-937 (human lymphoma cell line, Korean cell line bank)
Sequence (P23219 24-599): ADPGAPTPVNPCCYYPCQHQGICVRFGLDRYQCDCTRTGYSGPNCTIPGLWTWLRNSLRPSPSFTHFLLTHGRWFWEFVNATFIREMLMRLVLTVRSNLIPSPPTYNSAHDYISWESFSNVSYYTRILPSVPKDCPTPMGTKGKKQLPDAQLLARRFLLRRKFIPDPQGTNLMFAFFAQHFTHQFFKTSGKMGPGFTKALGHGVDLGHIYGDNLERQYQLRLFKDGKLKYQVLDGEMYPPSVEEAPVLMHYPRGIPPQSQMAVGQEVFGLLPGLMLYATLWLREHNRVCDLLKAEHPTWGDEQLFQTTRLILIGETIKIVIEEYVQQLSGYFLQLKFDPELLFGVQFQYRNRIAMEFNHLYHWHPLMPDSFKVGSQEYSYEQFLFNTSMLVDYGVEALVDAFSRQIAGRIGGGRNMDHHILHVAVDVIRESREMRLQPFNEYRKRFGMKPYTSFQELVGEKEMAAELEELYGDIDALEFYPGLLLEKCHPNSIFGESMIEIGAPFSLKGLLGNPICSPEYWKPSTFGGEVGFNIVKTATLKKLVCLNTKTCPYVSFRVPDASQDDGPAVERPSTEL
protocolDetails: Inhibition of cyclooxygenase-1 in U-937 cells (PGE2 quantitation)
Type: cell-based
measurementConditions: 3 μM; U-937 cells
Give measured Inhibitory effects of cyclooxygenase (COX): COX-1 for each item. Keep answers brief.
Give bare numbers, in % inhibition.

Solved entries (count: 3):
1) Cc1ccc(-c2nc(C)nn2-c2ccc(S(N)(=O)=O)cn2)cc1 | 50.4
2) Cc1nc(-c2ccc(Cl)cc2)n(-c2ccc(S(C)(=O)=O)cc2)n1 | 72.9
3) COc1ccc(-c2nc(C)nn2-c2ccc(S(N)(=O)=O)cc2)cc1OC | 27.3

Let us examine a further case.
Just so you know, measured Inhibitory effects of cyclooxygenase (COX): COX-1 for COc1ccc(-c2nc(C)nn2-c2ccc(S(N)(=O)=O)cn2)cc1 came out at 46.9

====

systemName: cyclooxygenase-1 (Homo sapiens)
Construct: The cultured U-937 (humane lymphoma cell, obtained from Korean cell line bank) was centrifuged to collect the pellet; endogenous in cells; host or cells: U-937 (human lymphoma cell line, Korean cell line bank)
protocolDetails: Inhibition of cyclooxygenase-1 in U-937 cells (PGE2 quantitation)
Assay type: cell-based
measurementConditions: 10 μM; U-937 cells
resultType: Inhibitory effects of cyclooxygenase (COX): COX-1 (% inhibition)
Give bare numbers, in % inhibition.

Solved entries (count: 2):
1. COc1ccc(-c2nc(C)nn2-c2ccc(S(N)(=O)=O)cc2)cc1OC | 34.3
2. Cc1nc(-c2ccc(F)cc2)n(-c2ccc(S(N)(=O)=O)cc2)n1 | 53.4

For the 3 compounds below, give their Inhibitory effects of cyclooxygenase (COX): COX-1 values.
1. Cc1nc(-c2ccc(F)cc2)n(-c2ccc(S(N)(=O)=O)cn2)n1
2. Cc1nc(-c2cccc(Br)c2)n(-c2ccc(S(N)(=O)=O)cc2)n1
3. Cc1nc(-c2cccc(Cl)c2)n(-c2ccc(S(N)(=O)=O)cn2)n1

41.0
81.9
56.7

====

systemName: cyclooxygenase-2 (Mus musculus, UniProt Q05769)
Construct: endogenous in cells; host or cells: Raw 264.7 (Korean cell line bank), aspirin-pretreated, induced with interferon gamma and LPS
Sequence (Q05769 18-604): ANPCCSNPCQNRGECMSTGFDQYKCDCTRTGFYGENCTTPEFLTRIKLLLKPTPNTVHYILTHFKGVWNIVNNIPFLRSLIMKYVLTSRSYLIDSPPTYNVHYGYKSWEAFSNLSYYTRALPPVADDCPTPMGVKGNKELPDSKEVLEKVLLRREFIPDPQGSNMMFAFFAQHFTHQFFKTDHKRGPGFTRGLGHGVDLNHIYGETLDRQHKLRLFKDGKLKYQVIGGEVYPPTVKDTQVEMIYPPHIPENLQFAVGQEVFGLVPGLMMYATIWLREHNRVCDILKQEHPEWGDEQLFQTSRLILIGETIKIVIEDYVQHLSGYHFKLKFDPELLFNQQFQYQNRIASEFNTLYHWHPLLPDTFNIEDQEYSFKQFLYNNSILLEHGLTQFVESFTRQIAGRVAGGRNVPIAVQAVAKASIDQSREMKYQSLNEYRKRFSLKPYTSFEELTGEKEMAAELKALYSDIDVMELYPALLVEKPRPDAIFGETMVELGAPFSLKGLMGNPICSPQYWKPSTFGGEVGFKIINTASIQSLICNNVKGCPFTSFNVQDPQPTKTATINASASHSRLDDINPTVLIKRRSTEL
protocolDetails: Inhibition of cyclooxygenase-2 in Raw 264.7 cells treated with interferon γ and LPS (PGE2 EIA)
Type: cell-based
measurementConditions: 300 nM; Raw 264.7 cells
resultType: Inhibitory effects of cyclooxygenase (COX): COX-2
Show the value, then the unit it is measured in.

Solved entries (count: 4):
1. Cc1nc(-c2cccc(Cl)c2)n(-c2ccc(S(N)(=O)=O)cc2)n1 | 50.5 % inhibition
2. Cc1nc(-c2ccc(Cl)cc2)n(-c2ccc(S(N)(=O)=O)cn2)n1 | 85.2 % inhibition
3. Cc1nc(-c2ccc(Br)cc2)n(-c2ccc(S(C)(=O)=O)cc2)n1 | 36.2 % inhibition
4. Cc1nc(-c2cccc(F)c2)n(-c2ccc(S(N)(=O)=O)cn2)n1 | 74.0 % inhibition

For the 4 molecules below, give their Inhibitory effects of cyclooxygenase (COX): COX-2 values.
1. Cc1nc(-c2cccc(Br)c2)n(-c2ccc(S(N)(=O)=O)cc2)n1
2. Cc1nc(-c2ccccc2)n(-c2ccc(S(N)(=O)=O)cc2)n1
3. Cc1ccc(-c2nc(C)nn2-c2ccc(S(N)(=O)=O)cc2)cc1
4. Cc1nc(-c2ccc(Cl)cc2)n(-c2ccc(S(N)(=O)=O)cc2)n1

1. 99.2 % inhibition
2. 81.4 % inhibition
3. 75.2 % inhibition
4. 82.9 % inhibition

For the 2 molecules below, give their Inhibitory effects of cyclooxygenase (COX): COX-2 values.
1. COc1cc(OC)cc(-c2nc(C)nn2-c2ccc(S(N)(=O)=O)cn2)c1
2. Cc1nc(-c2cccc(F)c2)n(-c2ccc(S(N)(=O)=O)cc2)n1

1. 36.2 % inhibition
2. 55.3 % inhibition

For the 3 molecules below, give their Inhibitory effects of cyclooxygenase (COX): COX-2 values.
1. Cc1ccc(-c2nc(C)nn2-c2ccc(S(N)(=O)=O)cn2)cc1
2. COc1ccccc1-c1nc(C)nn1-c1ccc(S(N)(=O)=O)cc1
3. Cc1nc(-c2ccc(Br)cc2)n(-c2ccc(S(N)(=O)=O)cn2)n1

1. 46.5 % inhibition
2. 37.7 % inhibition
3. 78.2 % inhibition

For the 6 molecules below, give their Inhibitory effects of cyclooxygenase (COX): COX-2 values.
1. Cc1nc(-c2ccc(F)cc2)n(-c2ccc(S(N)(=O)=O)cc2)n1
2. COc1ccc(-c2nc(C)nn2-c2ccc(S(N)(=O)=O)cc2)cc1OC
3. Cc1nc(-c2ccc(F)cc2)n(-c2ccc(S(N)(=O)=O)cn2)n1
4. Cc1nc(-c2ccc(Br)cc2)n(-c2ccc(S(N)(=O)=O)cc2)n1
5. Cc1nc(-c2ccc(F)cc2)n(-c2ccc(S(C)(=O)=O)cc2)n1
6. COc1cccc(-c2nc(C)nn2-c2ccc(S(N)(=O)=O)cc2)c1

45.7 % inhibition
70.4 % inhibition
38.9 % inhibition
99.8 % inhibition
64.0 % inhibition
68.8 % inhibition

====

systemName: cyclooxygenase-1 (Homo sapiens)
Construct: The cultured U-937 (humane lymphoma cell, obtained from Korean cell line bank) was centrifuged to collect the pellet; endogenous in cells; host or cells: U-937 (human lymphoma cell line, Korean cell line bank)
protocolDetails: Inhibition of cyclooxygenase-1 in U-937 cells (PGE2 quantitation)
Format: cell-based
measurementConditions: 30 μM; U-937 cells
Protocol: In order to investigate pharmacologically the selective inhibition activity against cyclooxygenase-2 enzyme, the inhibitive effects against cyclooxygenase-1 and cyclooxygenase-2 were measured by two methods as follows. Then, the pellet was diluted with 1×HBSS(Hank's balanced salt solutin) at the concentration of 1×10^6 cells/ml, and 1 ml of them was transferred into each well of 12-well plates, and then dissolved with DMSO. […]
resultType: Inhibitory effects of cyclooxygenase (COX): COX-1 (% inhibition)
Numbers only, in % inhibition.

1. Cc1ccc(-c2nc(C)nn2-c2ccc(S(N)(=O)=O)cc2)cc1 | 79.7
2. Cc1nc(-c2ccc(Br)cc2)n(-c2ccc(S(C)(=O)=O)cc2)n1 | 82.1
3. Cc1nc(-c2cccc(F)c2)n(-c2ccc(S(N)(=O)=O)cc2)n1 | 28.1
4. Cc1nc(-c2ccc(F)cc2)n(-c2ccc(S(C)(=O)=O)cc2)n1 | 55.1

Let us examine a further case.
For Cc1nc(-c2ccc(Br)cc2)n(-c2ccc(S(C)(=O)=O)cn2)n1 on cyclooxygenase-1 (Homo sapiens), measured Inhibitory effects of cyclooxygenase (COX): COX-1 was 88.1
